# SYSTEM_UNDER_TEST: UniProt Q9NYK1
# Sequence (Q9NYK1 27-1049): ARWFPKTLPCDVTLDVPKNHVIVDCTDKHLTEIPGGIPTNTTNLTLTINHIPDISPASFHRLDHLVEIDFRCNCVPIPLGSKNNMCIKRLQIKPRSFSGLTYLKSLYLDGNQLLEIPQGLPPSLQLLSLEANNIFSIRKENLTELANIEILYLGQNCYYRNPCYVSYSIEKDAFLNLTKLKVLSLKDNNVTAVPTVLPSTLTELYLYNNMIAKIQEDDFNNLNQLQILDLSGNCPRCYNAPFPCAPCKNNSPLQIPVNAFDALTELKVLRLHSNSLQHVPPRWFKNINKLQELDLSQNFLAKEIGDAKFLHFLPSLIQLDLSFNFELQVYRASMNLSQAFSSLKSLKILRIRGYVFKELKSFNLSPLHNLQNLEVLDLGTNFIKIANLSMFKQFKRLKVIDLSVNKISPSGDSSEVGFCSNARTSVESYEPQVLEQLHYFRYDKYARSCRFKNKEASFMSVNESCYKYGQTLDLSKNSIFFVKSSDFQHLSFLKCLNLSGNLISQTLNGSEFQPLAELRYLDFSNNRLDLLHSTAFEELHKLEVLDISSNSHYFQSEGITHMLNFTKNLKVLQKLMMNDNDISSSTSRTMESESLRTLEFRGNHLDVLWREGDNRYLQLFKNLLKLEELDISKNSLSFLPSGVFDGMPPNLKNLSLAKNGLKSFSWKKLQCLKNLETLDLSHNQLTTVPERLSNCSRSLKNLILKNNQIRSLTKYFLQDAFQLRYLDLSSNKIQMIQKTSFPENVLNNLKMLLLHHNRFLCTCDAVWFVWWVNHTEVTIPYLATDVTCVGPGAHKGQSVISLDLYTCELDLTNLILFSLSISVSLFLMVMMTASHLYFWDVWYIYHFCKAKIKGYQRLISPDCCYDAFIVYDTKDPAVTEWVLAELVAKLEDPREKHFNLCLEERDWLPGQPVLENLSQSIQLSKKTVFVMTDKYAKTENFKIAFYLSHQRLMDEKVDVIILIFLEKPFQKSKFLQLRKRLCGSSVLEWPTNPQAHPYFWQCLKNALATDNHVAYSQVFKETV
# EXPERIMENT_NOTES: HEK293-Blue-hTLR-7 cells assay (SEAP reporter, R848 stimulation)
# EXPERIMENTAL_SETUP: HEK293-Blue-hTLR7 cells, R848, 20 hrs; read-out: HEK/hTLR7 IC50
pIC50: −log10 of the molar value.
Listed next: entries and their corresponding pIC50.
PARAMETER_MEASURED: pIC50

[
  {
    "COMPOUND": "C[C@@H]1CN(c2ccc(C#N)c3ncccc23)C[C@H](CN2CCN(c3cccc(N4CCNCC(O)C4)n3)CC2)O1 (stereo partly shown)",
    "PARAMETER_MEASURED": "pIC50",
    "READING": 7.09
  },
  {
    "COMPOUND": "C[C@@H]1CN(c2ccc(C#N)c3nccnc23)C[C@H](CN2CCN(c3nccc(N4CC(N)C4)n3)CC2)O1",
    "PARAMETER_MEASURED": "pIC50",
    "READING": 8.40
  },
  {
    "COMPOUND": "C[C@@H]1CN(c2ccc(C#N)c3ncccc23)C[C@H](CN2CCN(c3ccnc(N[C@H]4CNC[C@H]4F)n3)CC2)O1",
    "PARAMETER_MEASURED": "pIC50",
    "READING": 7.42
  },
  {
    "COMPOUND": "Cc1cc(N2CCNCC2)nc(N2CCN(C[C@H]3CN(c4ccc(C#N)c5nccnc45)C[C@@H](C)O3)CC2)n1",
    "PARAMETER_MEASURED": "pIC50",
    "READING": 8.52
  },
  {
    "COMPOUND": "CO[C@H]1CN(c2nccc(N3CCN(C[C@H]4CN(c5ccc(C#N)c6nccnc56)C[C@@H](C)O4)CC3)n2)C[C@@H]1N",
    "PARAMETER_MEASURED": "pIC50",
    "READING": 7.96
  },
  {
    "COMPOUND": "C[C@@H]1CN(c2ccc(C#N)n3ncc(F)c23)C[C@H](CN2CC(c3ccc(N4CC(C)(N)C4)cc3)C2)O1",
    "PARAMETER_MEASURED": "pIC50",
    "READING": 7.96
  },
  {
    "COMPOUND": "Cc1ccc(N2C[C@H](CN3CCN(c4ccnc(N5CC(N)C5)n4)CC3)O[C@H](C)C2)c2nccnc12",
    "PARAMETER_MEASURED": "pIC50",
    "READING": 7.80
  }
]

====

# SYSTEM_UNDER_TEST: hERG channel (Homo sapiens)
# Construct: expressed in transfected cells; host or cells: CHO (Chinese hamster ovary)
# Sequence (Q12809 whole entry): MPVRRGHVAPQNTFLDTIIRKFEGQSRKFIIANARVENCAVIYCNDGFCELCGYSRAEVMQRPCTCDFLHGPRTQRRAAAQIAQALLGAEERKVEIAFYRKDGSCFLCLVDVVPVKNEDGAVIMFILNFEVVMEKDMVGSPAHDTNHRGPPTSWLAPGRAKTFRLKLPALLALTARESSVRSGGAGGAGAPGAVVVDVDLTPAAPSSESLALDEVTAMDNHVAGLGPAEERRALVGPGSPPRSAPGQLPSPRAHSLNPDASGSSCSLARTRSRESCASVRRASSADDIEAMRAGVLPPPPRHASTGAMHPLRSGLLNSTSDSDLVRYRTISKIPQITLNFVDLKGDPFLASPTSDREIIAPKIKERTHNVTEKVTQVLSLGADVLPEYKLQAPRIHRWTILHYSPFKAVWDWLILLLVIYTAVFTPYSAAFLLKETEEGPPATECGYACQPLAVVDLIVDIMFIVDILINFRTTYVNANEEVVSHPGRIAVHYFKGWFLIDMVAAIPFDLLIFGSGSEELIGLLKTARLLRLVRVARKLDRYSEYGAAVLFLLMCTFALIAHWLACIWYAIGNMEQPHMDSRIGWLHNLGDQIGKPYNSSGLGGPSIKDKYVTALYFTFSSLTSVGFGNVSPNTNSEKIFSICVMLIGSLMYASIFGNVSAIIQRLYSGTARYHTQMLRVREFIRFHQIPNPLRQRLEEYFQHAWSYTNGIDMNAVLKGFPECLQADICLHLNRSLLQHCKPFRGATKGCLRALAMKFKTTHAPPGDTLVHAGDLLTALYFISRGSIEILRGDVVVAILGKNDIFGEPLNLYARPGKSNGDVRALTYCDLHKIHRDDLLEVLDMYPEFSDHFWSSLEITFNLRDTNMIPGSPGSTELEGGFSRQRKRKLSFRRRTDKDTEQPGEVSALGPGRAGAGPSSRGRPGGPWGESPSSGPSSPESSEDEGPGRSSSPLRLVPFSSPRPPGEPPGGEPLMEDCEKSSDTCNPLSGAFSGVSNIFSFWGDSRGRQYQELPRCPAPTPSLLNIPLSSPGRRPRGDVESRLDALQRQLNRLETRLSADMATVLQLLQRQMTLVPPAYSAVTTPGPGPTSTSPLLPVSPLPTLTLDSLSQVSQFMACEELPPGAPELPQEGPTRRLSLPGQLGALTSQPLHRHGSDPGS
# EXPERIMENT_NOTES: hERG channel inhibition assay (patch-clamp, CHOhERG cells)
# Format: cell-based
# EXPERIMENTAL_SETUP: safety ratio
# Experimental: hERG Channel Inhibition Assay: The hERG K^+ channels were cloned in humans and stably expressed in a CHO (Chinese hamster ovary) cell line. CHOhERG cells were used for patch-clamp (voltage-clamp, whole-cell) experiments. […] After the cells were stabilized for a few minutes, the amplitude and kinetics of IKhERG were recorded at a stimulation frequency of 0.1 Hz, (6 bpm). […]
Item-by-item account of hERG IC20/TLR7 IC50
PARAMETER_MEASURED: hERG IC20/TLR7 IC50

[
  {
    "COMPOUND": "C[C@@H]1CN(c2ccc(C#N)c3ncccc23)C[C@H](CN2CCN(c3cccc(NC4CNC4)n3)CC2)O1",
    "SYSTEM_UNDER_TEST": "hERG channel (Homo sapiens)",
    "VALUE_RELATION_SIGN": "=",
    "READING": 344
  },
  {
    "COMPOUND": "C[C@@H]1CN(c2ccc(C#N)n3ncc(F)c23)C[C@H](CN2CCN(c3ccc(N[C@H]4CNC[C@H]4F)nc3)CC2)O1",
    "SYSTEM_UNDER_TEST": "hERG channel (Homo sapiens)",
    "VALUE_RELATION_SIGN": ">",
    "READING": 714
  },
  {
    "COMPOUND": "C[C@@H]1CN(c2ccc(C#N)c3ncccc23)C[C@H](CN2CCN(c3ccncc3)CC2)O1 [ER-888286, reference compound]",
    "SYSTEM_UNDER_TEST": "hERG channel (Homo sapiens)",
    "VALUE_RELATION_SIGN": "=",
    "READING": 0.3
  },
  {
    "COMPOUND": "CO[C@H]1CN(c2cc(C)nc(N3CCN(C[C@H]4CN(c5ccc(C#N)c6nccnc56)C[C@@H](C)O4)CC3)n2)C[C@@H]1N",
    "SYSTEM_UNDER_TEST": "hERG channel (Homo sapiens)",
    "VALUE_RELATION_SIGN": ">",
    "READING": 454
  }
]
